- Tested on: Perennial rye grass, crabgrass, red root pigweed, mustard
- assay_info: Preliminary Herbicide Seed Germination Test
- test_context: rating/maximum 15: 100 ppm only, crabgrass omitted, each rated 1 (no injury) to 5 (no seedlings emerged)
measured_endpoint: Herbicide (total preemergence rating)

Consider the reported Herbicide (total preemergence rating) for these compounds:
[[record]]
compound = "CCCC(=O)OC1=C(c2c(C)cc(C)cc2C)C(=O)c2ccccc21"
result = "15/15"

[[record]]
compound = "CCc1cccc(CC)c1C1=C(OC(=O)C(C)(C)C)c2ccccc2C1=O"
result = "12/15"

[[record]]
compound = "CCCCCCCCSC(=O)OC1=C(c2c(C)cc(C)cc2C)C(=O)c2ccccc21"
result = "11/15"

[[record]]
compound = "COCC(=O)OC1=C(c2c(C)cc(C)cc2C)C(=O)c2ccccc21"
result = "15/15"

[[record]]
compound = "CC(C)c1cccc(C(C)C)c1C1=C(OC(=O)C(C)(C)C)c2ccccc2C1=O"
result = "3/15"

[[record]]
compound = "CCCCC(=O)OC1=C(c2c(C)cc(C)cc2C)C(=O)c2ccccc21"
result = "15/15"

[[record]]
compound = "Cc1cc(C)c(C2=C(OC(=O)CC3C=CCC3)c3ccccc3C2=O)c(C)c1 (stereo not shown)"
result = "11/15"

[[record]]
compound = "CCc1cccc(C)c1C1=C(OC(=O)C(C)(C)C)c2ccccc2C1=O"
result = "14/15"


Q: Report Herbicide (total preemergence rating) for Cc1cc(C)c(C2=C(OC(=O)C3CC4C=CC3C4)c3ccccc3C2=O)c(C)c1 (stereo not shown) please.
A: 11/15

Q: Report Herbicide (total preemergence rating) for Cc1cc(C)c(C(=O)OC2=C(c3c(Cl)cccc3Cl)C(=O)c3ccccc32)c(C)c1 please.
A: 6/15

----------
Collected Phytotoxicity Rating, Cotton values appear next to each entry.
- Test system: Cotton
- assay_info: Phytotoxicity, cotton
- test_context: 2500 ppm, 10 days
Write the value as a bare number.

[[record]]
molecule = "CCC(=O)OC1=C(c2c(C)cc(C)cc2C)C(=O)c2ccccc21"
result = 1

[[record]]
molecule = "Cc1cc(C)c(C2=C(OC(=O)C3CC4C=CC3C4)c3ccccc3C2=O)c(C)c1 (centres unmarked)"
result = 2

[[record]]
molecule = "CCCCC(CC)C(=O)OC1=C(c2c(C)cc(C)cc2C)C(=O)c2ccccc21 (centres unmarked)"
result = 1


Q: Report Phytotoxicity Rating, Cotton for Cc1cc(C)c(C2=C(OC(=O)C(C)C)c3ccccc3C2=O)c(C)c1 please.
A: 2

Q: Report Phytotoxicity Rating, Cotton for Cc1cc(C)c(C2=C(OC(=O)C(C)(C)C)c3ccccc3C2=O)c(C)c1 please.
A: 3

----------
Collected Herbicide (total preemergence rating) values appear next to each entry.
- Tested on: Perennial rye grass, crabgrass, red root pigweed, mustard
- assay_info: Preliminary Herbicide Seed Germination Test
- test_context: rating/maximum 20: 100 ppm only, four species, each rated 1 (no injury) to 5 (no seedlings emerged)

Q: Report Herbicide (total preemergence rating) for CCCCCCCCCCCCCCCCCC(=O)OC1=C(c2ccccc2)C(=O)c2ccccc21 [2-Phenyl-3-(stearoyloxy)indone] please.
A: 4/20

Q: Report Herbicide (total preemergence rating) for Cc1ccc(C(=O)OC2=C(c3c(Cl)cccc3Cl)C(=O)c3ccccc32)c(C)c1 please.
A: 5/20

Q: Report Herbicide (total preemergence rating) for Cc1cc(C)c(C2=C(OC(=O)OC(C)C)c3ccccc3C2=O)c(C)c1 please.
A: 18/20

Q: Report Herbicide (total preemergence rating) for CCCCN(CCCC)C(=O)OC1=C(c2c(C)cc(C)cc2C)C(=O)c2ccccc21 please.
A: 10/20

Q: Report Herbicide (total preemergence rating) for CCCCCCCCOC(=O)OC1=C(c2c(C)cc(C)cc2C)C(=O)c2ccccc21 please.
A: 16/20

----------
- System: adults and nymphal stages of the two-spotted mite
- assay_info: Mite Foliage Spray Test
- Type: in vivo, Tetranychus urticae (Koch)
- test_context: 4 days
Collected Mite Adult rating values appear next to each entry.

[[record]]
compound = "Cc1cc(C)c(C2=C(OC(=O)N3CCOCC3)c3ccccc3C2=O)c(C)c1"
result = "3 (an approximately 50% mortality)"

[[record]]
compound = "CCCCC(=O)OC1=C(c2c(C)cc(C)cc2C)C(=O)c2ccccc21"
result = "5 (100% mortality)"

[[record]]
compound = "O=C(OC1=C(c2ccccc2)C(=O)c2ccccc21)c1ccccc1 [2-Phenyl-3-(benzoyloxy)indone]"
result = 1

[[record]]
compound = "CCc1cccc(CC)c1C1=C(OC(=O)C(C)(C)C)c2ccccc2C1=O"
result = "5 (100% mortality)"

[[record]]
compound = "Cc1cc(C)c(C2=C(OC(=O)CCCCl)c3ccccc3C2=O)c(C)c1"
result = "5 (100% mortality)"


Q: Report Mite Adult rating for Cc1cc(C)c(C2=C(OC(=O)Cl)c3ccccc3C2=O)c(C)c1 please.
A: 5 (100% mortality)

Q: Report Mite Adult rating for Cc1cc(C)c(C2=C(OC(=O)N(C)c3ccccc3)c3ccccc3C2=O)c(C)c1 please.
A: 1

Q: Report Mite Adult rating for COc1cccc(OC)c1C(=O)OC1=C(c2c(Cl)cccc2Cl)C(=O)c2ccccc21 please.
A: 1

Q: Report Mite Adult rating for Cc1cccc(Cl)c1C1=C(OC(=O)C(C)(C)C)c2ccccc2C1=O please.
A: 5 (100% mortality)

----------
Collected Mite Adult rating values appear next to each entry.
- Tested on: adults and nymphal stages of the two-spotted mite
- assay_info: Mite Foliage Spray Test
- Format: in vivo, Tetranychus urticae (Koch)
- test_context: 4 days
- Source text: The test procedures were as follows: Compositions were rated on the basis of percent kill with a rating of 1 indicating no mortality; 3 signifying an approximately 50% mortality and 5 indicating 100% mortality at the indicated dosage.

Consider the reported Mite Adult rating for these molecules:
[[record]]
molecule = "CCCCC(CC)C(=O)OC1=C(c2c(C)cc(C)cc2C)C(=O)c2ccccc21 (centres unmarked)"
result = "5 (100% mortality)"

[[record]]
molecule = "Cc1cc(C)c(C2=C(OC(=O)c3c(Cl)ccc(Cl)c3Cl)c3ccccc3C2=O)c(C)c1"
result = 1

[[record]]
molecule = "COc1ccc(C(=O)OC2=C(c3c(Cl)cccc3Cl)C(=O)c3ccccc32)cc1"
result = "5 (100% mortality)"

[[record]]
molecule = "COCC(=O)OC1=C(c2c(C)cc(C)cc2C)C(=O)c2ccccc21"
result = "5 (100% mortality)"


Next molecule, please.
Q: Report Mite Adult rating for Cc1cc(C)c(C2=C(OC(=O)CC3C=CCC3)c3ccccc3C2=O)c(C)c1 (centres unmarked) please.
A: 5 (100% mortality)

----------
- Tested on: adults and nymphal stages of the two-spotted mite
- assay_info: Mite Foliage Spray Test
- Type: in vivo, Tetranychus urticae (Koch)
- test_context: 4 days
Collected Mite Adult rating values appear next to each entry.

Consider the reported Mite Adult rating for these molecules:
[[record]]
molecule = "O=C(OC1=C(c2c(Cl)cccc2Cl)C(=O)c2ccccc21)c1cccc(Cl)c1"
measured_endpoint = "Mite Adult rating"
result = "5 (100% mortality)"

[[record]]
molecule = "CCCCCCCCSC(=O)OC1=C(c2c(C)cc(C)cc2C)C(=O)c2ccccc21"
measured_endpoint = "Mite Adult rating"
result = "5 (100% mortality)"

[[record]]
molecule = "CCCCCCCCCCCCCCCCCC(=O)OC1=C(c2ccc(C)cc2C)C(=O)c2ccccc21"
measured_endpoint = "Mite Adult rating"
result = "3 (an approximately 50% mortality)"

[[record]]
molecule = "Cc1cc(C)c(C2=C(OC(=O)c3cccnc3)c3ccccc3C2=O)c(C)c1"
measured_endpoint = "Mite Adult rating"
result = "5 (100% mortality)"

[[record]]
molecule = "Cc1cc(C)c(C2=C(OC(=O)c3ccco3)c3ccccc3C2=O)c(C)c1"
measured_endpoint = "Mite Adult rating"
result = "5 (100% mortality)"

[[record]]
molecule = "Cc1cc(C)c(C2=C(OC(=O)Oc3ccc(Cl)cc3)c3ccccc3C2=O)c(C)c1"
measured_endpoint = "Mite Adult rating"
result = "5 (100% mortality)"

[[record]]
molecule = "Cc1cc(C)c(C2=C(OC(=O)C3CC4C=CC3C4)c3ccccc3C2=O)c(C)c1 (stereo not shown)"
measured_endpoint = "Mite Adult rating"
result = "5 (100% mortality)"

[[record]]
molecule = "CCCCC(CC)C(=O)OC1=C(c2cccc3ccccc23)C(=O)c2ccccc21 (stereo not shown)"
measured_endpoint = "Mite Adult rating"
result = 1

[[record]]
molecule = "Cc1cc(C)c(C2=C(OC(=O)c3ccc(Cl)c(Cl)c3)c3ccccc3C2=O)c(C)c1"
measured_endpoint = "Mite Adult rating"
result = "5 (100% mortality)"


Next molecule, please.
Q: Query for adults and nymphal stages of the two-spotted mite: what Mite Adult rating does the record show for CCCC(=O)OC1=C(c2c(C)cc(C)cc2C)C(=O)c2ccccc21 ?
A: 5 (100% mortality)

----------
- System: Perennial rye grass, crabgrass, red root pigweed, mustard
- assay_info: Preliminary Herbicide Seed Germination Test
- test_context: rating/maximum 20: 100 ppm only, four species, each rated 1 (no injury) to 5 (no seedlings emerged)
measured_endpoint: Herbicide (total preemergence rating)

Consider the reported Herbicide (total preemergence rating) for these compounds:
[[record]]
compound = "CCCCCCCCCCCCC(=O)OC1=C(c2cc(C)ccc2C)C(=O)c2ccccc21"
measured_on = "Perennial rye grass, crabgrass, red root pigweed, mustard"
measured_endpoint = "Herbicide (total preemergence rating)"
result = "4/20"

[[record]]
compound = "Cc1cccc(C)c1C(=O)OC1=C(c2c(Cl)cccc2Cl)C(=O)c2ccccc21"
measured_on = "Perennial rye grass, crabgrass, red root pigweed, mustard"
measured_endpoint = "Herbicide (total preemergence rating)"
result = "4/20"

[[record]]
compound = "CC(C)(C)C(=O)OC1=C(c2ccc(Cl)cc2)C(=O)c2ccccc21"
measured_on = "Perennial rye grass, crabgrass, red root pigweed, mustard"
measured_endpoint = "Herbicide (total preemergence rating)"
result = "4/20"

[[record]]
compound = "CCCCCCCCCCCCCCCC(=O)OC1=C(c2ccc(C(C)C)cc2)C(=O)c2ccccc21"
measured_on = "Perennial rye grass, crabgrass, red root pigweed, mustard"
measured_endpoint = "Herbicide (total preemergence rating)"
result = "4/20"

[[record]]
compound = "Cc1cc(C)c(C2=C(OC(=O)c3cccs3)c3ccccc3C2=O)c(C)c1"
measured_on = "Perennial rye grass, crabgrass, red root pigweed, mustard"
measured_endpoint = "Herbicide (total preemergence rating)"
result = "18/20"

[[record]]
compound = "Cc1cc(C)c(C2=C(OC(=O)N3CCOCC3)c3ccccc3C2=O)c(C)c1"
measured_on = "Perennial rye grass, crabgrass, red root pigweed, mustard"
measured_endpoint = "Herbicide (total preemergence rating)"
result = "4/20"


Q: Report Herbicide (total preemergence rating) for CCCCC(CC)C(=O)OC1=C(c2ccccc2C)C(=O)c2ccccc21 (centres unmarked) please.
A: 4/20

Q: Report Herbicide (total preemergence rating) for CCCCN(C)C(=O)OC1=C(c2c(C)cc(C)cc2C)C(=O)c2ccccc21 please.
A: 4/20

Q: Report Herbicide (total preemergence rating) for CCCCC(CC)C(=O)OC1=C(c2ccccc2OC)C(=O)c2ccccc21 (centres unmarked) please.
A: 4/20

Where do the numbers come from? From patent US4091006A.
